The origin of these recorded values is ChEMBL document CHEMBL1154047.

test system: HeLa; test: Ratio of compound IC50 to cisplatin IC50 for human HeLa cells; type: functional
Values of Ratio IC50 greater than or equal to 4 map to y; values below map to n.

compound	label
Cc1cc2c(c(O)c1-c1c(C)cc3c(c1O)/C(=C/N[C@H](CO)[C@H](O)c1ccc([N+](=O)[O-])cc1)C(=O)C(O)=C3C(C)C)/C(=C/N[C@H](CO)[C@H](O)c1ccc([N+](=O)[O-])cc1)C(=O)C(O)=C2C(C)C (stereo in doubt; 1a)	n
Cc1cc2c(c(O)c1-c1c(C)cc3c(c1O)/C(=C/NCCCO)C(=O)C(O)=C3C(C)C)/C(=C/NCCCO)C(=O)C(O)=C2C(C)C (stereo in doubt; 4a)	n
Cc1cc2c(c(O)c1-c1c(C)cc3c(c1O)/C(=C/N[C@H](CO)[C@H](O)c1ccc([N+](=O)[O-])cc1)C(=O)C(O)=C3C(C)C)/C(=C/N[C@H](CO)[C@H](O)c1ccc([N+](=O)[O-])cc1)C(=O)C(O)=C2C(C)C (stereo in doubt; 1b)	n
Cc1cc2c(c(O)c1-c1c(C)cc3c(c1O)/C(=C/NC1CC1)C(=O)C(O)=C3C(C)C)/C(=C/NC1CC1)C(=O)C(O)=C2C(C)C (stereo in doubt; 5a)	y

* * *

assay: Anticancer activity against human M85 cells after 48 hrs by MTT assay; type: functional, cell-based; conditions: m85
pIC50: −log10 of the molar value.
measuredMetric: pIC50

compound	observedResult
COC(=O)[C@H](Cc1ccc(O)cc1)N/C=C1\C(=O)C(O)=C(C(C)C)c2cc(C)c(-c3c(C)cc4c(c3O)/C(=C/N[C@@H](Cc3ccc(O)cc3)C(=O)OC)C(=O)C(O)=C4C(C)C)c(O)c21 (stereo in doubt; 8a)	4.28
COC(=O)[C@H](Cc1ccccc1)N/C=C1\C(=O)C(O)=C(C(C)C)c2cc(C)c(-c3c(C)cc4c(c3O)/C(=C/N[C@@H](Cc3ccccc3)C(=O)OC)C(=O)C(O)=C4C(C)C)c(O)c21 (stereo in doubt; 7b)	4.19
Cc1cc2c(c(O)c1-c1c(C)cc3c(c1O)/C(=C/N[C@H](CO)Cc1ccccc1)C(=O)C(O)=C3C(C)C)/C(=C/N[C@H](CO)Cc1ccccc1)C(=O)C(O)=C2C(C)C (stereo in doubt; 2b)	4.81

* * *

system: HeLa; experiment: Ratio of compound IC50 to (-)-gossypol IC50 for human HeLa cells; format: functional
Ratio IC50 reference
measuredMetric: Ratio IC50

compound	observedResult
Cc1cc2c(c(O)c1-c1c(C)cc3c(c1O)/C(=C/Nc1ccc(Br)cc1)C(=O)C(O)=C3C(C)C)/C(=C/Nc1ccc(Br)cc1)C(=O)C(O)=C2C(C)C (stereo in doubt; 6a)	4.14
COC(=O)[C@H](Cc1ccccc1)N/C=C1\C(=O)C(O)=C(C(C)C)c2cc(C)c(-c3c(C)cc4c(c3O)/C(=C/N[C@@H](Cc3ccccc3)C(=O)OC)C(=O)C(O)=C4C(C)C)c(O)c21 (stereo in doubt; 7b)	3.88
Cc1cc2c(c(O)c1-c1c(C)cc3c(c1O)/C(=C/NCCCO)C(=O)C(O)=C3C(C)C)/C(=C/NCCCO)C(=O)C(O)=C2C(C)C (stereo in doubt; 4a)	0.6
Cc1cc2c(c(O)c1-c1c(C)cc3c(c1O)/C(=C/N[C@H](CO)[C@H](O)c1ccc([N+](=O)[O-])cc1)C(=O)C(O)=C3C(C)C)/C(=C/N[C@H](CO)[C@H](O)c1ccc([N+](=O)[O-])cc1)C(=O)C(O)=C2C(C)C (stereo in doubt; 1a)	1.1
Cc1cc2c(c(O)c1-c1c(C)cc3c(c1O)/C(=C/N[C@H](CO)Cc1ccccc1)C(=O)C(O)=C3C(C)C)/C(=C/N[C@H](CO)Cc1ccccc1)C(=O)C(O)=C2C(C)C (stereo in doubt; 2b)	0.83
Cc1cc2c(c(O)c1-c1c(C)cc3c(c1O)/C(=C/NC1CC1)C(=O)C(O)=C3C(C)C)/C(=C/NC1CC1)C(=O)C(O)=C2C(C)C (stereo in doubt; 5a)	3.14
COC(=O)[C@H](Cc1ccc(O)cc1)N/C=C1\C(=O)C(O)=C(C(C)C)c2cc(C)c(-c3c(C)cc4c(c3O)/C(=C/N[C@@H](Cc3ccc(O)cc3)C(=O)OC)C(=O)C(O)=C4C(C)C)c(O)c21 (stereo in doubt; 8a)	1.22
Cc1cc2c(c(O)c1-c1c(C)cc3c(c1O)/C(=C/NC(C)C)C(=O)C(O)=C3C(C)C)/C(=C/NC(C)C)C(=O)C(O)=C2C(C)C (stereo in doubt; 10b)	0.96
Cc1cc2c(c(O)c1-c1c(C)cc3c(c1O)/C(=C/NC(C)C)C(=O)C(O)=C3C(C)C)/C(=C/NC(C)C)C(=O)C(O)=C2C(C)C (stereo in doubt; 10a)	1.34
COC(=O)[C@H](Cc1ccc(O)cc1)N/C=C1\C(=O)C(O)=C(C(C)C)c2cc(C)c(-c3c(C)cc4c(c3O)/C(=C/N[C@@H](Cc3ccc(O)cc3)C(=O)OC)C(=O)C(O)=C4C(C)C)c(O)c21 (stereo in doubt; 8b)	0.64
